- Tested on: Bacillus subtilis DB104 (SP-AmyQ fusion secretion)
- assay_summary: AmyQ secretion efficiency, weighted average sort bin (1 = best secretion, 10 = worst) (bin number (weighted average, 1-10)); higher = lower secretion efficiency
Listed next: entries and their corresponding AmyQ secretion efficiency.
Please respond with just the number, no unit label.

MTMLSMIIGWILLLCIIPLFAFTVIASGKEV	7.31
MLKKKWMVGLLAGCLAAGGFSYNAFVTEN	7.21

What value of AmyQ secretion efficiency has been reported for the following sequence? MKVCQKSIVRFLVSLIIGTFVITSVPFMANAQSD 3

Request the reported AmyQ secretion efficiency associated with MLKRTSFVSSLFISSAVLLSILKKKGQAHAQSA 7

Please report the recorded AmyQ secretion efficiency for MNKKYFVLIVCIIFTSALFPTFAVTVTAAQG . 1.05

Look up AmyQ secretion efficiency for this sequence: MRGKSAVLLSLIMLIAGFLISFTFQM 6.75

What value of AmyQ secretion efficiency has been recorded for this entry: MKKVLMAFIICLSLILDVLAAPPSGAKAESV 1.95
